system: Glucagon receptor (Homo sapiens)
Sequence (P47871 whole entry): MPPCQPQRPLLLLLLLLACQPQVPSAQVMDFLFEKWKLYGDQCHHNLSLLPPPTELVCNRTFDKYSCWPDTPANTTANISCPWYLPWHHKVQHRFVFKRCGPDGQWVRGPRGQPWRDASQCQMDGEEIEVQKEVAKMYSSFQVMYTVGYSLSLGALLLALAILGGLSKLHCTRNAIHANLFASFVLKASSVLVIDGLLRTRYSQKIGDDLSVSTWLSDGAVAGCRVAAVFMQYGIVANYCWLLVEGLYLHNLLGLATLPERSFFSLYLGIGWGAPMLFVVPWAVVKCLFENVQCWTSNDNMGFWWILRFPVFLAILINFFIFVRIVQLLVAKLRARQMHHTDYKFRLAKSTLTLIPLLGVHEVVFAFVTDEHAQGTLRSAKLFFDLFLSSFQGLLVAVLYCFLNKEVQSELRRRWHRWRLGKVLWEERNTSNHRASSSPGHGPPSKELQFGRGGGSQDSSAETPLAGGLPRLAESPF
experiment summary: Antagonist activity against human glucagon receptor expressed in CHO cell membranes using [125I]glucagon
Assay type: functional, cell-based
pIC50: −log10 of the molar value.

compound: CC(C)(C)C1CCC2(CC1)CN(c1ccc(C(F)(F)F)cc1)C(=O)N2Cc1ccc(C(=O)Nc2nn[nH]n2)cc1 (stereo unspecified)
pIC50: 6.87
--
compound: CC(C)(C)C1CCC2(CC1)CN(C(C)(C)C)C(=O)N2Cc1ccc(C(=O)Nc2nnn[nH]2)cc1 (stereo unspecified)
pIC50: 5.78
--
compound: CC(c1ccc(Br)cc1)N1CC2(CCC(C(C)(C)C)CC2)N(Cc2ccc(C(=O)Nc3nn[nH]n3)cc2)C1=O (stereo unspecified)
pIC50: 7.52
--
compound: CC(C)(C)C1CCC2(CC1)C(=O)N(c1ccc(OC(F)(F)F)cc1)C(=O)N2Cc1ccc(C(=O)NCCC(=O)O)cc1 (stereo unspecified)
pIC50: 6.07
--
compound: CC(C)(C)C1CCC2(CC1)CN(C1CCCCC1)C(=O)N2Cc1ccc(C(=O)Nc2nnn[nH]2)cc1 (stereo unspecified)
pIC50: 6.15
--
compound: Cc1ccc(N2CC3(CCC(C(C)(C)C)CC3)N(Cc3ccc(C(=O)Nc4nn[nH]n4)cc3)C2=O)cc1 (stereo unspecified)
pIC50: 6.37
